test system: Mus musculus; test: Anesthetic dose in mouse in tail-flick test; type: functional
Param label: returns MET when AD50 < 1 µg/kg, returns NOT MET otherwise, including exact equality.

Worked cases, answers included:
compound	group label
CN1C2CCC1C(c1cncc(I)c1)C2 (stereo not given)	MET
Fc1cncc(C2CC3CCC2N3)c1 (stereo not given)	MET

State whether 1 µg/kg exceeds AD50 recorded for C#Cc1cncc(C2CC3CCC2N3)c1 (stereo not given) . NOT MET

State whether 1 µg/kg exceeds AD50 recorded for Nc1cncc(C2CC3CCC2N3)c1 (stereo not given) . NOT MET

State whether 1 µg/kg exceeds AD50 recorded for Clc1cncc(C2CC3CCC2N3)c1 (stereo not given) . MET

State whether 1 µg/kg exceeds AD50 recorded for Ic1cncc(C2CC3CCC2N3)c1 (single isomer, unassigned; (+)) . NOT MET

State whether 1 µg/kg exceeds AD50 recorded for Ic1cncc(C2CC3CCC2N3)c1 (single isomer, unassigned; (-)) . MET

State whether 1 µg/kg exceeds AD50 recorded for C=Cc1cncc(C2CC3CCC2N3)c1 (stereo not given) . NOT MET

State whether 1 µg/kg exceeds AD50 recorded for Brc1cncc(C2CC3CCC2N3)c1 (stereo not given) . NOT MET

State whether 1 µg/kg exceeds AD50 recorded for Ic1cncc(C2CC3CCC2N3)c1 (stereo in doubt; 3d) . MET
